- protocol: Bmi1 luciferase reporter increase in mESCs, primary screen, esBAF inhibitor project, mouse ES cells, Bmi1 luciferase knock-in, single point (AID 602393);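 further: 0% = median of the plate's neutral control wells and 100% = double that signal; a rise in the Bmi1 reporter signal indicates esBAF inhibition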
- condition-details: 24 h, at 12.5 µM, active compounds read high, 100% = twice the neutral-well signal
Hit rate of the full screen: of about 350,000 compounds, about 7,000 (2%) were called active. This excerpt belongs to a sample that is enriched for actives.
quantity: reporter increase (%)
Numbers only, in %.

Would you mind listing reporter increase for each of the following molecules?
1. COc1cccc(C(=O)Nc2nnc(S(=O)(=O)N3CCOCC3)s2)c1
2. Cc1nonc1NC(=O)CSc1nc2ccccc2cc1C#N

Reply text:
1. 1.13
2. 36.1

---

- protocol: Bmi1 luciferase reporter increase in mESCs, primary screen, esBAF inhibitor project, mouse ES cells, Bmi1 luciferase knock-in, single point (AID 602393)
- condition-details: 24 h, at 12.5 µM, active compounds read high, 100% = twice the neutral-well signal
About 7,000 (2%) of roughly 350,000 compounds were called active. This excerpt belongs to a sample that is enriched for actives.
Decision: reporter increase >= 20% yields YES, all other cases yield NO.

Illustrative cases are given below, each with its answer.
CCC(=O)Nc1ccc(C(=O)Nc2cccc(OC)c2)cc1	YES
CCC(=O)Nc1ccc(C(=O)NNC(=O)c2ccc(Cl)cc2)cc1	NO
C[C@H]1CCCCO[C@H](CN(C)C(=O)Nc2ccc3c(c2)OCO3)[C@@H](C)CN([C@@H](C)CO)C(=O)c2cc(NC(=O)Nc3ccccc3)ccc2O1	NO
COc1ccc(NC(=O)Nc2ccc3nsnc3c2)cc1	YES
COc1ccc(NC(=O)Nc2ccc3c(c2)C(=O)N([C@H](C)CO)C[C@H](C)[C@@H](CN(C)C(=O)Nc2ccc(OC)cc2)OCCCC[C@H](C)O3)cc1	NO
COc1cccc(N(CC(=O)Nc2cccc(F)c2)S(C)(=O)=O)c1	NO

Inquiry: Assess whether reported reporter increase for C[C@H]1CCCCO[C@H](CN(C)C(=O)Nc2ccccc2)[C@@H](C)CN([C@@H](C)CO)C(=O)c2cc(NC(=O)Nc3ccc4c(c3)OCO4)ccc2O1 sits at 20% or higher.
Reply text: YES

---

Answer each item with its documented reporter increase.
- protocol: Bmi1 luciferase reporter increase in mESCs, primary screen, esBAF inhibitor project, mouse ES cells, Bmi1 luciferase knock-in, single point (AID 602393);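 further: 0% = median of the plate's neutral control wells and 100% = double that signal; a rise in the Bmi1 reporter signal indicates esBAF inhibition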
- condition-details: 24 h, at 12.5 µM, active compounds read high, 100% = twice the neutral-well signal
Hit rate of the full screen: of about 350,000 compounds, about 7,000 (2%) were called active. Shown is part of a subset that was picked to be rich in actives.
Numbers only, in %.

In the examples that follow, each entry is paired with its recorded reporter increase.
CC(C)Cc1cc(C(=O)Nc2cc(Br)ccc2O)no1	30.6
Fc1cccc(Cc2c(-c3cccc(Cl)c3)nc3ccc(Br)cn23)c1	57.3
C[C@H](CO)N1C[C@H](C)[C@H](CN(C)Cc2ccncc2)Oc2ccc(N(C)C)cc2C1=O	-1.91
Clc1cccc(Cc2c(-c3cccc(Cl)c3)nc3ccc(Cl)cn23)c1	35.2
COc1cccc(-c2ccc3c(c2)O[C@@H](CN(C)Cc2ccncc2)[C@H](C)CN([C@H](C)CO)S3(=O)=O)c1	0.833
Cc1ccc(S(=O)(=O)Nc2ccc3c(c2)C(=O)N([C@H](C)CO)C[C@@H](C)[C@H](CN(C)S(=O)(=O)c2cccs2)OCCCC[C@@H](C)O3)cc1	5.34

Would you mind listing reporter increase for each of the following molecules?
1. Cc1ccc(O)c(NC(=O)c2cc(-c3ccco3)on2)c1
2. Cc1ccc(C)c(NC(=O)c2ccc(OC(=O)c3ccco3)cc2)c1
3. COc1ccc(NC(=O)N(C)C[C@@H]2Oc3ccc(NC(=O)CCN4CCOCC4)cc3C(=O)N([C@@H](C)CO)C[C@H]2C)cc1

Reply text:
69.9
5.84
2.67

---

- protocol: Bmi1 luciferase reporter increase in mESCs, primary screen, esBAF inhibitor project, mouse ES cells, Bmi1 luciferase knock-in, single point (AID 602393);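 further: 0% = median of the plate's neutral control wells and 100% = double that signal; a rise in the Bmi1 reporter signal indicates esBAF inhibition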
- condition-details: 24 h, at 12.5 µM, 100% = twice the neutral-well signal
About 7,000 (2%) of roughly 350,000 compounds were called active. No stated cut-off is given here; in the data, active means activation above about 40%; inconclusive means no clear call, values can overlap the other calls; inactive means below that. The sample holds actives, similar compounds and a random draw of the others, so the mix is not that of the screen.
Just give me one of these, please: class 1 (active), class 0 (inactive)

Illustrative cases are given below, each with its answer.
O=C(C[C@@H]1C=C[C@H](NC(=O)C2CCOCC2)[C@H](CO)O1)NCc1ccncc1	class 0
COC(=O)c1sccc1N/N=C(\C)c1ccc(F)c(Cl)c1	class 0
CC(C)(C)C1CCc2c(sc3nc(SCC(N)=O)nc(N)c23)C1 (configuration not stated)	class 0
Cc1ccc(S(=O)(=O)Nc2ccc3c(c2)C(=O)N([C@H](C)CO)C[C@H](C)[C@@H](CN(C)S(=O)(=O)c2cn(C)cn2)OCCCC[C@H](C)O3)cc1	class 0
COc1ccc(CN2C[C@@H](C)[C@H](OC)CN(C)C(=O)c3cc(NC(C)=O)ccc3OC[C@@H]2C)cc1	class 0

Inquiry: Hello, I am checking results. What call was entered for CCCN(C)C[C@H]1OCCCC[C@@H](C)Oc2ccc(NC(=O)CCC(F)(F)F)cc2C(=O)N([C@H](C)CO)C[C@H]1C ?
Reply text: class 0

Inquiry: Hello, I am checking results. What call was entered for COc1cccc(/C(C)=N/Nc2ncc(Cl)cc2Cl)c1 ?
Reply text: class 1

Inquiry: Hello, I am checking results. What call was entered for C[C@@H]1CN([C@H](C)CO)C(=O)Cc2cc(NC(=O)CCCN(C)C)ccc2O[C@H]1CN(C)CC1CCCCC1 ?
Reply text: class 0

Inquiry: Hello, I am checking results. What call was entered for COc1ccc(S(=O)(=O)N(C)C[C@@H]2OCCCC[C@@H](C)Oc3ccc(N(C)C)cc3C(=O)N([C@@H](C)CO)C[C@@H]2C)cc1 ?
Reply text: class 0

Inquiry: Hello, I am checking results. What call was entered for O=C(c1ccccc1)N1CC[C@H]2[C@H](CO)Nc3ccc(-c4ccc(F)cc4)cc3[C@H]21 ?
Reply text: class 0

Inquiry: Hello, I am checking results. What call was entered for O=C(N[C@H]1CC[C@@H](CCNS(=O)(=O)c2cccc(Cl)c2)O[C@@H]1CO)c1ccncc1 ?
Reply text: class 0

Inquiry: Hello, I am checking results. What call was entered for CSc1ccccc1-c1nnc(-c2ccc(Cl)cc2)o1 ?
Reply text: class 1

Inquiry: Hello, I am checking results. What call was entered for CC(C)(C)c1ccc(C(=O)NNC(=O)Cc2ccccc2)cc1 ?
Reply text: class 1

Inquiry: Hello, I am checking results. What call was entered for O=C1C=C(c2ccc(Cl)cc2)C(=O)N1Nc1ccccc1 ?
Reply text: class 0

---

- protocol: Bmi1 luciferase reporter increase in mESCs, primary screen, esBAF inhibitor project, mouse ES cells, Bmi1 luciferase knock-in, single point (AID 602393);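 further: 0% = median of the plate's neutral control wells and 100% = double that signal; a rise in the Bmi1 reporter signal indicates esBAF inhibition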
- condition-details: 24 h, at 12.5 µM, 100% = twice the neutral-well signal
Hit rate of the full screen: of about 350,000 compounds, about 7,000 (2%) were called active. Cut-off read from the data, not from the text of the source: active = activation above about 40%; inconclusive = no clear call, values can overlap the other calls; inactive = below that. This is one part of a sample in which actives are shown more often than they occur.
Just give me one of these, please: y = active, n = inactive

Illustrative cases are given below, each with its answer.
C[C@H](CO)N1C[C@H](C)[C@H](CN(C)Cc2ccccn2)Oc2ncc(C#CCc3ccccc3)cc2C1=O	n
COc1ccccc1S(=O)(=O)Nc1ccc2c(c1)C(=O)N(C)C[C@H](OC)[C@H](C)CN[C@H](C)CO2	n
Cc1ccc(S/C(=N\S(=O)(=O)c2ccc(Cl)cc2)c2ccccc2)cc1	n
CN1c2ccc(-c3ccccc3F)cc2[C@H]2[C@H](CCN2C(=O)Nc2cc(F)ccc2F)[C@H]1CO	n
C[C@@H]1CCCCO[C@H](CN(C)C(=O)CCC(F)(F)F)[C@H](C)CN([C@@H](C)CO)C(=O)c2cc(NC(=O)CCCCCC(=O)Nc3ccccc3N)ccc2O1	n
c1ccc2cc3[nH]c(CN4CCCCC4)nc3cc2c1	y

Inquiry: Hello, I am checking results. What call was entered for CC(=O)c1ccc(Nc2nc(C(N)c3ccccc3)cs2)cc1 (stereo not drawn) ?
Reply text: n

Inquiry: Hello, I am checking results. What call was entered for C[C@H]1CN([C@@H](C)CO)C(=O)c2cc(-c3ccccc3F)cnc2O[C@@H]1CN(C)C(=O)C1CCCCC1 ?
Reply text: n

Inquiry: Hello, I am checking results. What call was entered for O=C(NCCC1=CCCCC1)c1ccc(-n2cncn2)cc1 ?
Reply text: y

Inquiry: Hello, I am checking results. What call was entered for O=C(NCC[C@@H]1CC[C@@H](NC(=O)Nc2cc(F)ccc2F)[C@H](CO)O1)Nc1ccc(Cl)cc1 ?
Reply text: n

Inquiry: Hello, I am checking results. What call was entered for Cc1noc(C)c1CCC(=O)O ?
Reply text: n

Inquiry: Hello, I am checking results. What call was entered for COC(=O)CCC(=O)N1CCCC(CO)(Cc2ccccc2)C1 (stereo not drawn) ?
Reply text: y

Inquiry: Hello, I am checking results. What call was entered for CCCc1cc(C(=O)N2CCCC(CO)(CCCc3ccccc3)C2)n(C)n1 (stereo not drawn) ?
Reply text: n

Inquiry: Hello, I am checking results. What call was entered for Cc1noc(C)c1NC(=O)N[C@@H]1C=C[C@H](CC(=O)N2CCCCC2)O[C@H]1CO ?
Reply text: n

Inquiry: Hello, I am checking results. What call was entered for O=S(=O)(N[C@H]1CC[C@@H](CCNS(=O)(=O)c2ccccc2Cl)O[C@@H]1CO)c1ccccc1 ?
Reply text: n

Inquiry: Hello, I am checking results. What call was entered for CCOC(=O)C1(Cc2ccccc2C)CCCN(C(=O)CCc2c(C)noc2C)C1 (stereo not drawn) ?
Reply text: n

Inquiry: Hello, I am checking results. What call was entered for COC(=O)CCc1sc(Nc2ccc(Br)cc2)nc1-c1ccc(OC)cc1 ?
Reply text: n

Inquiry: Hello, I am checking results. What call was entered for Nc1ncc(-c2cc3ccccc3oc2=O)s1 ?
Reply text: y
